STATED_CONDITIONS: 363 K, Capillary rise
surface tension liquid-gas overview
Use mN/m as the unit, but write only the number.

For the molecule CCCCC[N+](CC)(CC)CC.O=S(=O)([N-]S(=O)(=O)C(F)(F)F)C(F)(F)F [triethylpentylammonium bis(trifluoromethylsulfonyl)imide] , what surface tension liquid-gas is on record? 31.1

# get_value(readout='surface tension liquid-gas', item= CCCCCC[N+](CC)(CC)CC.O=S(=O)([N-]S(=O)(=O)C(F)(F)F)C(F)(F)F [triethylhexylammonium bis((trifluoromethyl)sulfonyl)imide] ) 28.9

// surface tension liquid-gas lookup, key: `CCCCCCCCCCCC[N+](CC)(CC)CC.O=S(=O)([N-]S(=O)(=O)C(F)(F)F)C(F)(F)F` 26

May I ask what surface tension liquid-gas has been recorded for CCCCCCCC[N+](CC)(CC)CC.O=S(=O)([N-]S(=O)(=O)C(F)(F)F)C(F)(F)F [triethyloctylammonium bis[(trifluoromethyl)sulfonyl]imide] ? 27.7
